Test system: WNK1
Settings: concentration: 1 μM,replicates: in singlicate; n = 1;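 note: KINOMEscan kinase panel screen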
PROPERTY_NAME: %Inh (%)

- MOL: "O=c1[nH]cc(-c2ccc(O)cc2)c2sc(-c3ccncc3)cc12"
  TESTED_TARGET: "WNK1"
  PROPERTY_NAME: "%Inh"
  VALUE_OBSERVED: 1
- MOL: "NC(=O)Nc1sc(-c2ccc(F)cc2)cc1C(N)=O"
  TESTED_TARGET: "WNK1"
  PROPERTY_NAME: "%Inh"
  VALUE_OBSERVED: 0
- MOL: "Cl.c1ccc(Oc2ccc(Nc3ccnc4cc(-c5ccc(CN6CCNCC6)o5)ccc34)cc2)nc1"
  TESTED_TARGET: "WNK1"
  PROPERTY_NAME: "%Inh"
  VALUE_OBSERVED: 0
- MOL: "COc1cccc(C2=C(Nc3cccc(Cl)c3)C(=O)NC2=O)c1"
  TESTED_TARGET: "WNK1"
  PROPERTY_NAME: "%Inh"
  VALUE_OBSERVED: 20
- MOL: "CSc1nccc(-c2c(-c3ccc(F)cc3)ncn2CCCN2CCOCC2)n1.Cl"
  TESTED_TARGET: "WNK1"
  PROPERTY_NAME: "%Inh"
  VALUE_OBSERVED: 21
- MOL: "O=C(NCC1CC1)c1ccc(-c2cc(C(=O)NC3CC3)ccc2F)cc1"
  TESTED_TARGET: "WNK1"
  PROPERTY_NAME: "%Inh"
  VALUE_OBSERVED: 0
- MOL: "CN(c1ccccc1CNc1nc(Nc2ccc3c(c2)CC(=O)N3)ncc1C(F)(F)F)S(C)(=O)=O"
  TESTED_TARGET: "WNK1"
  PROPERTY_NAME: "%Inh"
  VALUE_OBSERVED: 0
- MOL: "CC(C)c1nc(-c2cccc(NS(=O)(=O)c3ccccc3)c2)c(-c2ccnc(Nc3ccc4c(c3)CN(C)CC4)n2)s1"
  TESTED_TARGET: "WNK1"
  PROPERTY_NAME: "%Inh"
  VALUE_OBSERVED: 8
- MOL: "COc1cc2c(Nc3ccc(NC(=O)c4ccccc4)cc3)ncnc2cc1OCCCN1CCOCC1"
  TESTED_TARGET: "WNK1"
  PROPERTY_NAME: "%Inh"
  VALUE_OBSERVED: 1
- MOL: "O=C1NCCc2[nH]c(-c3ccncc3)cc21"
  TESTED_TARGET: "WNK1"
  PROPERTY_NAME: "%Inh"
  VALUE_OBSERVED: 0
- MOL: "C[C@@H](Oc1cc(-n2cnc3cc(-c4cnn(C)c4)ccc32)sc1C(N)=O)c1ccccc1Cl"
  TESTED_TARGET: "WNK1"
  PROPERTY_NAME: "%Inh"
  VALUE_OBSERVED: 62

---

Below, each entry is listed with its recorded %Inh.
System: TGFBR1
Conditions: concentration: 1 μM,replicates: in singlicate; n = 1

- MOLECULE: "NC(=O)Nc1sc(-c2ccc(F)cc2)cc1C(N)=O [GW789449]"
  %Inh, %: 27
- MOLECULE: "CC(=O)Nc1nc2cnc(Nc3cc(NC(=O)c4cccc(CC(C)(C)C#N)c4)ccc3C)nc2s1"
  %Inh, %: 9
- MOLECULE: "NC(=O)c1ccc(-c2cc3ncnc(SCC(=O)O)c3s2)cc1"
  %Inh, %: 0
- MOLECULE: "CS(=O)(=O)Nc1ccc(-c2ccnc3[nH]ccc23)cc1 [GSK993273]"
  %Inh, %: 0
- MOLECULE: "C[C@@H](Oc1cc(-n2cnc3cc(-c4cnn(C)c4)ccc32)sc1C(N)=O)c1ccccc1Cl [GSK580432]"
  %Inh, %: 0
- MOLECULE: "N#Cc1cccc(C(=O)NC2CCN(c3ccnc(Nc4ccc(F)cc4)n3)C2)c1 (stereo not drawn) [GSK1379708]"
  %Inh, %: 4
- MOLECULE: "COc1cc(Nc2nccc(N3CCC(NC(=O)c4cccc(C#N)c4)C3)n2)cc(OC)c1OC (stereo not drawn) [GSK1379751]"
  %Inh, %: 4
- MOLECULE: "Cc1ccc(C(=O)Nc2ccc(Oc3ccc4nc(NC(=O)C5CC5)cn4c3)c(F)c2)c(=O)n1-c1ccccc1"
  %Inh, %: 16
- MOLECULE: "O=c1[nH]cc(-c2ccc(O)cc2)c2sc(-c3ccncc3)cc12 [GSK1033723]"
  %Inh, %: 0
